# Tested on: CP262
# procedureDetails: qHTS profiling for inhibitors of Plasmodium falciparum proliferation (AID 504749); also: nearly all actives have a fitted effect of over 60% in size
# experimentalParameters: P. falciparum in erythrocytes, SYBR Green DNA, 72 h; series mostly up to 28.7 µM
Inconclusive results are not listed. Activity calls are given as the source filed them. Calls follow the shape of the dose curve; as a rule, active = well fitted inhibition curve with a large enough effect; inconclusive = small, poorly fitted or top-dose-only effect; inactive = flat fitted curve, though single readings scatter.
Hi! Could you answer with just one of these? 1 = active, 0 = inactive

Solved cases below.
- compound: "CN(C)CCC[C@@]1(c2ccc(F)cc2)OCc2cc(C#N)ccc21"
  group: 0
- compound: "Cc1cc(CC(=O)O)c(C)n1-c1ccc(Cl)cc1"
  group: 0

[ask] Given `O=C(O)Cc1csc(-c2ccc(Cl)cc2)n1` , state the outcome it received in this test.
[reply] 0

[ask] Given `NC(=O)C1(N2CCCCC2)CCN(CCCC(=O)c2ccc(F)cc2)CC1` , state the outcome it received in this test.
[reply] 0

[ask] Given `Cn1c(=O)c2[nH]c(Br)nc2n(C)c1=O` , state the outcome it received in this test.
[reply] 0

[ask] Given C[N+]1(CC2COC(c3ccccc3)(C3CCCCC3)O2)CCCCC1 (stereo unspecified) , state the outcome it received in this test.
[reply] 1

* * *

# Tested on: PA-1
# procedureDetails: Primary qHTS to identify gynecologic anti-cancer compounds using libraries of approved drugs and bioactive compounds (AID 1345084); also: nearly all actives have a fitted effect of over 55% in size
# experimentalParameters: Gynecologic cancer cell panel viability, ATPlite luminescence, 48 h; series mostly up to 57.5 µM
# Excerpt: National Center for Advancing Translational Sciences [NCATS] Assay Overview: Chemotherapeutic drug responses vary from cancer to cancer and from patient to patient. […] ATPlite is a luminescence based assay reliant on the conversion of a luciferase substrate to light in the presence of ATP. As a cytotoxic compound will suppress growth and decrease the number of cells, the concentration of ATP will decrease, and less light signal will be detected in the well. […]
Inconclusive results are not listed. Calls of active or inactive are those of the source. Calls follow the shape of the dose curve; as a rule, active = well fitted cell-killing curve with a large enough effect; inconclusive = small, poorly fitted or top-dose-only effect, or effect the other way; inactive = flat fitted curve, though single readings scatter.
measuredMetric: outcome

- molecule: "O=C(O)P(=O)(O)O"
  outcome: "inactive"
- molecule: "CC(=O)Nc1ccc(OCC(O)CNC(C)C)cc1 (configuration not stated)"
  outcome: "inactive"
- molecule: "N#C/C(=C1\\SCC(c2ccccc2Cl)S1)n1ccnc1 (configuration not stated)"
  outcome: "inactive"
- molecule: "O=C1c2cccc3c2[C@H](CCC3)CN1[C@@H]1CN2CCC1CC2"
  outcome: "inactive"
- molecule: "NCCNc1cccc2ccccc12"
  outcome: "inactive"
- molecule: "CC(C)(C)NC[C@H](O)COc1nsnc1N1CCOCC1"
  outcome: "inactive"

[ask] # get_value(readout='outcome', item= `c1ccc(-c2nc[nH]c2-c2ccccc2)cc1` )
[reply] inactive

* * *

# Test system: HeLa
# procedureDetails: Primary qHTS to identify gynecologic anti-cancer compounds using libraries of approved drugs and bioactive compounds (AID 1345084); also: nearly all actives have a fitted effect of over 55% in size; also: potency is read from the fitted curve at half-maximal effect
# experimentalParameters: Gynecologic cancer cell panel viability, ATPlite luminescence, 48 h; series mostly up to 57.5 µM
# Source text: National Center for Advancing Translational Sciences [NCATS] Assay Overview: Chemotherapeutic drug responses vary from cancer to cancer and from patient to patient. […] ATPlite is a luminescence based assay reliant on the conversion of a luciferase substrate to light in the presence of ATP. As a cytotoxic compound will suppress growth and decrease the number of cells, the concentration of ATP will decrease, and less light signal will be detected in the well. […]
Records with an inconclusive call do not appear. Active and inactive are the calls of the source. Calls come from the whole dose curve; as a rule, active = well fitted cell-killing curve with a large enough effect; inconclusive = small, poorly fitted or top-dose-only effect, or effect the other way; inactive = flat fitted curve, though single readings scatter.
measuredMetric: Potency

- molecule: "CC(C)=CCOc1ccc(/C=C/C(=O)c2ccc(OCC=C(C)C)cc2OCC(=O)O)cc1"
  endpointValue: "inactive"
- molecule: "CC(=C(CCOC(=O)C(C)C)SSC(CCOC(=O)C(C)C)=C(C)N(C=O)Cc1cnc(C)nc1N)N(C=O)Cc1cnc(C)nc1N"
  endpointValue: "inactive"
- molecule: "Oc1ccccc1C=NCc1ccccc1"
  endpointValue: "inactive"
- molecule: "CCOCCn1c(N2CCCN(C)CC2)nc2ccccc21"
  endpointValue: "inactive"
- molecule: "COc1cc(C(=O)N2CCCCCCC2)cc(OC)c1OC"
  endpointValue: "inactive"

[ask] # get_value(readout='Potency', item= `CCN(CC)CCOc1ccc2c(c1)C(=O)c1cc(OCCN(CC)CC)ccc1-2` )
[reply] inactive

[ask] # get_value(readout='Potency', item= `C[C@@]12C(=O)OC(=O)[C@]1(C)C1CCC2O1` )
[reply] 3.55 µM (active)

[ask] # get_value(readout='Potency', item= CCCCC(CC)CN1CN(CC(CC)CCCC)CC(C)(N)C1 (stereo not given) )
[reply] inactive

[ask] # get_value(readout='Potency', item= `C#C[C@]1(OC(C)=O)CC[C@H]2[C@@H]3CCC4=C/C(=N/O)CC[C@@H]4[C@H]3CC[C@@]21CC` )
[reply] 4.47 µM (active)

[ask] # get_value(readout='Potency', item= `C[C@@H](O)[C@H]1C(=O)N2C(C(=O)O)=C(S[C@@H]3CN[C@H](CNS(N)(=O)=O)C3)[C@H](C)[C@H]12` )
[reply] inactive

* * *

# System: CRL-7250
# procedureDetails: Cytotoxic Profiling of Annotated Libraries Using Quantitative High-Throughput Screening (AID 1296008); also: % is scaled to controls: 0 for no effect and ±100 for the full control effect; nearly all actives have a fitted effect of over 60% in size
# experimentalParameters: Five cell lines viability, CellTiter-Glo ATP luminescence, 48-72 h; active compounds read low
Inconclusive results are not listed.
In this section we review reported max response values for a set of compounds.
Reply with just the number (in %).

Here are 6 compounds together with their reported answers.
- smilesData: "CCCCCCCCCCCCCCC[C@H](O)[C@@H](N)CO"
  unitsOfMeasure: "%"
  endpointValue: -2.05
- smilesData: "O=C(NC1CCN(CCc2c[nH]c3ccccc23)CC1)c1ccccc1"
  unitsOfMeasure: "%"
  endpointValue: -5.92
- smilesData: "NCCNc1cccc2ccccc12"
  unitsOfMeasure: "%"
  endpointValue: -3.59
- smilesData: "CCOC(=O)C(C#N)=C(c1ccccc1)c1ccccc1"
  unitsOfMeasure: "%"
  endpointValue: -5.66
- smilesData: "Cc1ccc(-c2ncc(Cl)cc2-c2ccc(S(C)(=O)=O)cc2)cn1"
  unitsOfMeasure: "%"
  endpointValue: -1.19
- smilesData: "COc1cc(C(=S)N2CCOCC2)ccc1O"
  unitsOfMeasure: "%"
  endpointValue: -4.16

Pending compound:
[ask] # get_value(readout='max response', item= `CN(C)C(=O)Nc1ccc(Cl)c(Cl)c1` )
[reply] 2.46

* * *

# procedureDetails: qHTS of pediatric cancer cell lines to identify multiple opportunities for drug repurposing: Confirmatory screen for DAOY cells (AID 1347114); also: potency is read from the fitted curve at half-maximal effect; nearly all actives have a fitted effect of over 65% in size
# experimentalParameters: DAOY medulloblastoma cells viability, cytotoxicity qHTS; series mostly up to 45.9 µM
# Procedure: Drug repurposing or repositioning has been offered as a strategy for drug development in oncology programs. […] [1] Shen, M et al. Quantitative high-throughput phenotypic screening of pediatric cancer cell lines identifies multiple opportunities for drug repurposing. […] Cells were assayed in growth media at a density of 500-1,000 cells/well. […] After a 15 min incubation at room temperature, samples were analyzed for luminescence intensity using a ViewLux High-throughput CCD imager equipped with clear filters.
Inconclusive results are not listed. The source made the active and inactive calls. Calls follow the shape of the dose curve; as a rule, active = well fitted cell-killing curve with a large enough effect; inconclusive = small, poorly fitted or top-dose-only effect; inactive = no such curve, though single readings can be large or run the other way.
measuredMetric: Potency

Here are 3 compounds together with their reported answers.
- smilesData: "C[C@H]1O[C@@H](O[C@H]2CC[C@@]3(C)[C@H](CC[C@@H]4[C@@H]3C[C@@H](O)[C@]3(C)[C@@H](C5=CC(=O)OC5)CC[C@]43O)C2)C[C@H](O)[C@@H]1O[C@H]1C[C@H](O)[C@H](O[C@H]2C[C@H](O)[C@H](O[C@@H]3O[C@H](CO)[C@@H](O)[C@H](O)[C@H]3O)[C@@H](C)O2)[C@@H](C)O1"
  Potency: "117 nM (active)"
- smilesData: "CCN1/C(=C/C=C/c2sc3ccccc3[n+]2CC)Sc2ccccc21"
  Potency: "362 nM (active)"
- smilesData: "CCCCCCCCCCCCOCCOCCOCCOCCOCCOCCOCCOCCOCCO"
  Potency: "14700 nM (active)"

Pending compound:
[ask] # get_value(readout='Potency', item= `C[C@@]12C(=O)OC(=O)[C@]1(C)C1CCC2O1` )
[reply] 2930 nM (active)

* * *

# procedureDetails: Drug repurposing screens with cells derived from glioblastoma tumor samples (AID 1345199); also: % is scaled to controls: 0 for no effect and ±100 for the full control effect; nearly all actives have a fitted effect of over 40% in size
# experimentalParameters: GBM patient neurospheres viability, ATP luminescence, 48 h; at 45.9 µM (top of the series); tumour line D
# Description: CD133+ cells were isolated from GBM patient biopsies and cultured as neurospheres. Neurospheres from four patients were used to screen the NCATS pharmaceutical collection (NPC) library of approved drugs and bioactive compounds. […] The neurospheres were incubated with drugs for 48 hours in 1536-well format, then assayed with an ATP content cell viability assay. […]
Inconclusive results are not listed.
measuredMetric: activity, negative = cell killing (%)
Reply with just the number (in %).

[ask] # get_value(readout='activity, negative = cell killing', item= CC(=O)Nc1ccc(OCC(O)CNC(C)C)cc1 (stereo not drawn) )
[reply] -7.95

[ask] # get_value(readout='activity, negative = cell killing', item= Cc1ccccc1OCC(O)CO (stereo not drawn) )
[reply] -9.22

[ask] # get_value(readout='activity, negative = cell killing', item= `CC(C)Cn1cnc2c1c(=O)n(C)c(=O)n2C` )
[reply] -3.1

[ask] # get_value(readout='activity, negative = cell killing', item= `CCN1CCN(C(=O)N[C@@H](C(=O)N[C@@H]2C(=O)N3C(C(=O)O)=C(CSc4nnnn4C)CS[C@H]23)c2ccc(O)cc2)C(=O)C1=O` )
[reply] 9.51

[ask] # get_value(readout='activity, negative = cell killing', item= `CCN(CC)CCNC(=O)COc1ccc(OC)cc1` )
[reply] -10.2

[ask] # get_value(readout='activity, negative = cell killing', item= `CCOc1ccccc1OCCN[C@H](C)Cc1ccc(OC)c(S(N)(=O)=O)c1` )
[reply] -16.9
